Listing: Plant response rating, Soybean of selected compounds
Tested on: soybean
Assay: Test B preemergence/postemergence greenhouse plant response rating 0 to 10
Format: in vivo, Glycine max
Conditions: Rate 200 g/ha, PREEMERGENCE; 0 to 10 scale
Reply: number alone, nothing else.

Look over these answered cases.
>  <Chem Smiles>
Fc1cc(Cl)c(OC2CCCC2)cc1-c1nn2c(c1Cl)CCCC2

>  <Plant response rating, Soybean>
2

$$$$
>  <Chem Smiles>
C=C(Cl)COc1cc(-c2nn3c(c2Cl)CCCC3)c(F)cc1Cl

>  <Plant response rating, Soybean>
2

$$$$

// below: Plant response rating, Soybean requested for another compound
Notebook: CCOC(=O)COc1cc(-c2nn3c(c2Cl)CCCC3)c(F)cc1Cl , Plant response rating, Soybean read as 0

Data credit: patent US6358885B1
